Target: T1, MutS (Pseudomonas aeruginosa, UniProt Q9HY08 1-855)
T1 sequence: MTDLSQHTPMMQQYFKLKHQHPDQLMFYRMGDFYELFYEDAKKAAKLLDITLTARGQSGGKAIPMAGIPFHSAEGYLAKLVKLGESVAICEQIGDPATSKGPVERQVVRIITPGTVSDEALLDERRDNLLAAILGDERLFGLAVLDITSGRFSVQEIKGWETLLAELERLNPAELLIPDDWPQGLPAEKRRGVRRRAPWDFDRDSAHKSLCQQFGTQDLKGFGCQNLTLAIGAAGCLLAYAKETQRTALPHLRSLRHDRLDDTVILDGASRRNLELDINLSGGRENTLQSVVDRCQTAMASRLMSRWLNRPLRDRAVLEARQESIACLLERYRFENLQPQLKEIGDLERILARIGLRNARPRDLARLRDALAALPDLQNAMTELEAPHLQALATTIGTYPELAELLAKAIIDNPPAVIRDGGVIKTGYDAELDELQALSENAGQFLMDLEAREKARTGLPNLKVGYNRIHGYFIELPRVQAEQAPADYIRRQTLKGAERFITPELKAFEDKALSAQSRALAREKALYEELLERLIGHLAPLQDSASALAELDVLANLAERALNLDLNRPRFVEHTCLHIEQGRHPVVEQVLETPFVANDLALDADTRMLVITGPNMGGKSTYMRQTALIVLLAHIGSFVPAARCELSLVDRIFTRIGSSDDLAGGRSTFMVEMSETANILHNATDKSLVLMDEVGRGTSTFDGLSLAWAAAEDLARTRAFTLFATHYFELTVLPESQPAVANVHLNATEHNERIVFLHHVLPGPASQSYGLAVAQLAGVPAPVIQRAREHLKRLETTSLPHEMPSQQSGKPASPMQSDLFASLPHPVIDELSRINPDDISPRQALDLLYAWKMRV
Assay: EMSA
Item-by-item account of Kd
Give the value, in units of nM, as a plain number.

Please review the entries below; each comes with its answer.
- binder: "GT-dsDNA (GT 18 nt from 3' end) (dsDNA) DNA 1: ATGTGAATCAGTATGGTTGCTATCTGCTGAAGGAAAT DNA 2: ATTTCCTTCAGCAGATAGTAACCATACTGATTCACAT"
  unit-spec: "nM"
  reported-value: 35
- binder: "GT-pDNA (GT 8 nt from 3'-OH) (dsDNA) DNA 1: ATGTGAATCAGTATGGTTGCTATCTGC DNA 2: ATTTCCTTCAGCAGATAGTAACCATACTGATTCACAT"
  unit-spec: "nM"
  reported-value: 20
- binder: "pDNA (AT) (dsDNA) DNA 1: ATGTGAATCAGTATGGTTACTATCTGC DNA 2: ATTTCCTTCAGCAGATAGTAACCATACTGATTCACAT"
  unit-spec: "nM"
  reported-value: 50.7

Please examine the following record next.
(Q) Report Kd for dsDNA (dsDNA) DNA 1: ATGTGAATCAGTATGGTTACTATCTGCTGAAGGAAAT DNA 2: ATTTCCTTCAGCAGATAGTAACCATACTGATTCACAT
(A) 331
